These measurements were taken from PubChem BioAssay (NCI).

test system: HCT-15 colon; assay: NCI tumour cell line growth inhibition, 48 h
// values below are reported TGI
observation_type: TGI

CSc1nc(NC2OCC(OC(C)=O)C(OC(C)=O)C2OC(C)=O)c(N=C(C)C(C)=O)c(=O)[nH]1 (stereo not drawn)	> 100 µM
Cc1nc2ccc(Cl)cc2c2c1CCS2	> 100 µM
CCCCCc1nc2c(c3c1CCCC3)CCCC2	26.8 µM

###

test system: NCI/ADR-RES ovarian; assay: NCI tumour cell line growth inhibition, 48 h
observation_type: TGI

COC(=O)C1CCOC(C)N1C(=O)OC(C)(C)C (centres undefined)	> 100 µM
CC(C)(C)OC(=O)CC(NC(=O)OC(C)(C)C)C(=O)N[C@@H]1CCCC[C@H]1C(=O)OCc1ccccc1 (some centres undefined)	> 100 µM
Cn1ccc(C(=O)N2CCSC2=S)c(OCc2ccccc2)c1=O	> 100 µM
COc1cc2c(c(O)c1OC)C(O)C1CCC(=O)N1C2c1cccc2ccccc12 (centres undefined)	> 100 µM
CCCc1cc(O)c2c3c(c(=O)oc2c1)CN(C)CC3	> 100 µM
CS(=O)(=O)OC1CN2CCC1CC2 (centres undefined)	> 100 µM
Nc1nc(N)c(Cn2ccnc2)c(=O)[nH]1	> 100 µM
O=c1c2c3c(sc2n2c(-c4cc(-c5ccccc5)no4)nnc2n1Cc1ccccc1)CCCC3	> 100 µM
O=Cc1c2ccccc2n2ccc3c4ccccc4[nH]c3c12	> 10 µM

###

system: HCC-2998 colon; assay: NCI tumour cell line growth inhibition, 48 h; in the data active means GI50 below about 0.43 µM; inactive means the rest
Classes used: active, inactive

COc1cc2c(cc1OCCCCCOc1cc3c(cc1OC)C(=O)N1CC(F)C[C@H]1C=N3)N=C[C@@H]1CC(F)CN1C2=O (some centres undefined)	active
O=S(=O)(Cc1ccc(Cl)cc1Cl)c1ccc(Cl)cc1	inactive
Nc1ccccc1-c1ccc([N+](=O)[O-])cc1	inactive
Cc1cc(NCCCNc2ccnc3cc(Cl)ccc23)nc(N2CCN(C)CC2)n1	inactive

###

tested on: MOLT-4 leukemia; experiment: NCI tumour cell line growth inhibition, 48 h
observation_type: TGI

COc1cccc(C2C3=C(COC3=O)N(CCO)c3cc(OC)ccc32)c1 (centres undefined)	> 100 µM
O=C1NC(=O)C(CC(C(=O)C(=O)Nc2ccccc2Cl)C(=O)c2ccc3ccccc3c2)C(=O)N1 (centres undefined)	> 100 µM
CC(=O)Nc1ccc(N=C2C(c3ccccc3)=C(SC3=C(c4ccccc4)C(=Nc4ccc(NC(C)=O)cc4)c4ccccc43)c3ccccc32)cc1	63 µM
O=[N+]([O-])c1ccc2[nH]nc(OCc3ccccn3)c2c1	> 100 µM
CN(C)CCN(C)CC1COC(C)(C)O1 (centres undefined)	> 100 µM
C/C=C/C/C=C/CCC(=O)[C@H]1O[C@H]1C(N)=O	52 µM
NC(=O)C#CC#CC#CCO	2.67 µM
CCOC(=O)C1C(c2ccc(OC)cc2)c2c([nH]n(-c3ccccc3)c2=O)CC1(O)OCC (centres undefined)	14 µM
COc1ccc2c(c1)CCN=C2Cc1cc(OC)c(OC)cc1CCCl	> 100 µM

###

test system: OVCAR-5 ovarian; test: NCI tumour cell line growth inhibition, 48 h
Note to self: values exactly at 20 µM are yes (1). So TGI at or above 20 µM is yes (1), below is no (0).

NC(=O)C#CC#CC#CCO	yes (1)
Cc1cc(Cl)cc2c(N=Nc3ccccc3[N+](=O)[O-])c(O)[nH]c12	yes (1)
COc1ccccc1/C=C(\C#N)C(=O)c1ccccc1	yes (1)
CCN1/C(=C/C=C/c2n(-c3ccccc3)c3ccc(-c4nc5ccccc5s4)cc3[n+]2CC)N(c2ccccc2)c2ccc(-c3nc4ccccc4s3)cc21	yes (1)
CCCc1cc(O)c2c3c(c(=O)oc2c1)CN(C)CC3	yes (1)
O=C(C[C@H](NC(=O)OCc1ccccc1)C(=O)NC1Cc2ccccc2OC1=O)OCc1ccccc1 (some centres undefined)	yes (1)
O=C(NCCCCN(CCCNC(=O)C(F)(F)F)Cc1ccc2ccccc2c1)C(F)(F)F	yes (1)
N#C/C(=N\Nc1ccc(Cl)cc1)C(=O)Nc1cc(-c2ccccc2)nn1-c1ccccc1	yes (1)
COc1ccc(/C(Cl)=C(/c2ccc(O)cc2)c2ccc(OCCN(C)C)cc2)cc1	yes (1)
O=C(O)c1cc(=O)[nH]c(SCc2ccccc2)n1	yes (1)
CCN1C=C/C(=C\C=C/c2cc[n+](CC)c3ccccc23)c2ccccc21	no (0)
CCCCCCNC(=O)c1cc(CCc2cc(O)ccc2O)ccc1O	no (0)
Cc1n[nH]c(=O)n1C1CCCC1	yes (1)
CC1=NOC2(C1)C(=O)Nc1ccccc12 (centres undefined)	yes (1)
C/C=C/C1=C(Cl)C(=O)[C@@H](Cl)[C@@]1(O)C(=O)OC	yes (1)
CC(C)Nc1ccc(Nc2ccccc2)cc1	yes (1)
CN(c1cc2ncc(=O)[nH]c2cc1NC(N)=NCc1ccc(Cl)cc1)C1CCCCC1	no (0)
O=C1C2C(C(=O)[N]1[Hg][c]1cccs1)C1(Cl)C(Cl)=C(Cl)C2(Cl)C1(Cl)Cl (centres undefined)	no (0)
COc1ccc(NC(=O)CC(=O)N2N=C(N(CCC#N)c3ccccc3Cl)CC2c2ccccc2)cc1 (centres undefined)	yes (1)
CC(=O)Oc1cc(C)c2c(c1OC(C)=O)CC1(O2)[C@@H](C)CCC2[C@@]3(C)CC[C@H](OC(C)=O)C(C)(C)C3CC[C@]21C (some centres undefined)	no (0)
CCOC(=O)/C(=N\OC)C(O)C(F)(F)F (centres undefined)	yes (1)
COc1ccc2nc3cc(Cl)ccc3c(NCCC[N+](C)(C)CCCCCCCCCCCCCCCC[N+](C)(C)CCCNc3c4ccc(Cl)cc4nc4ccc(OC)cc34)c2c1	no (0)
Clc1ccc(/C=C/c2cc(N3CCOCC3)c3cc(Cl)c(Cl)cc3n2)cc1	yes (1)
Cc1noc2cccc(OCc3ccccc3)c12	yes (1)
CCOC(=O)C1C(c2ccc(OC)cc2)c2c([nH]n(-c3ccccc3)c2=O)CC1(O)OCC (centres undefined)	yes (1)
CC(=O)Nc1ccc2c3c(cc(O)c2c1)N(C(=O)CCCCCC(=O)N1CC(CCl)c2c1cc(O)c1cc(NC(C)=O)ccc21)CC3CCl (centres undefined)	no (0)
COc1cc2c3c(n(CCCN(CCN)CCCn4c5c(c6cc(OC)c(OC)cc6c4=O)C(=O)c4cc6c(cc4-5)OCO6)c(=O)c2cc1OC)-c1cc2c(cc1C3=O)OCO2	no (0)
C/C(=C\c1ccccc1)C(=O)NCc1ccc(C(=O)NCCC(C)C)cc1	yes (1)

###

system: IGROV1 ovarian; test: NCI tumour cell line growth inhibition, 48 h
// values below are reported TGI
observation_type: TGI

Cc1cc(Cl)cc2c(N=Nc3ccccc3[N+](=O)[O-])c(O)[nH]c12	> 100 µM
CC(=O)Nc1ccc(N=C2C(c3ccccc3)=C(SC3=C(c4ccccc4)C(=Nc4ccc(NC(C)=O)cc4)c4ccccc43)c3ccccc32)cc1	> 100 µM
COCO[C@@H]1C[C@H]2C(=O)N(COC)c3ccccc3C(=O)N2C1	> 100 µM

###

system: SNB-75 CNS; assay: NCI tumour cell line growth inhibition, 48 h
// values below are reported TGI
observation_type: TGI

COc1cc(-n2cc(-c3ccc(F)cc3)nc2SCc2ccccc2)cc(OC)c1OC	> 100 µM
Cn1c(-c2cccs2)cc(-c2ccccc2)c1-c1cccs1	> 100 µM
C=[N+](CNC(=O)CNC(=O)C(Cc1ccc([N+](=O)[O-])cc1)NC(=O)OC(C)(C)C)C(=O)CNC(=O)C(Cc1ccc([N+](=O)[O-])cc1)NC(=O)OC(C)(C)C (centres undefined)	> 100 µM
Nc1nc(N)c(Cn2ccnc2)c(=O)[nH]1	> 100 µM

###

system: SN12C renal; assay: NCI tumour cell line growth inhibition, 48 h
// values below are reported TGI
observation_type: TGI

CCCN1CC=C(c2cc(C(=O)OCC)[nH]c2-c2cc(C)no2)C1=O	> 100 µM
CC(=O)Nc1ccc(N=C2C(c3ccccc3)=C(SC3=C(c4ccccc4)C(=Nc4ccc(NC(C)=O)cc4)c4ccccc43)c3ccccc32)cc1	> 100 µM
Cc1nc(-c2ccccc2)c(Cc2ccccc2O)c(=O)[nH]1	> 100 µM
CCN1/C(=C/C=C/c2n(-c3ccccc3)c3ccc(-c4nc5ccccc5s4)cc3[n+]2CC)N(c2ccccc2)c2ccc(-c3nc4ccccc4s3)cc21	2.44 µM

###

system: K-562 leukemia; assay: NCI tumour cell line growth inhibition, 48 h
observation_type: TGI

c1ccc2c(c1)Nc1ccccc1[P+]21c2ccccc2Nc2ccccc21	1.75 µM
O=C(NCCCCN(CCCNC(=O)C(F)(F)F)Cc1ccc2ccccc2c1)C(F)(F)F	37 µM
Cc1ccc(Cc2n[nH]c(=O)n2/N=C\CC/C=N\n2c(Cc3ccc(C)cc3)n[nH]c2=O)cc1	> 100 µM
COc1ccc(N(CN2C(=O)CCC2C(=O)O)C(C)=O)cc1 (centres undefined)	> 100 µM
Clc1cc2c(cc1Cl)Oc1cc(Cl)c(Cl)cc1O2	> 0.625 µM
Cc1cc(NCCCNc2ccnc3cc(Cl)ccc23)nc(N2CCN(C)CC2)n1	11.7 µM
Cc1n[nH]c(=O)n1C1CCCC1	> 100 µM
CCC1C(=O)OCc2c1cc1n(c2=O)Cc2cc3ccccc3nc2-1 (centres undefined)	> 100 µM
N/C(=N\S(=O)(=O)c1cccc2nsnc12)Nc1ccc(Cl)cc1	> 100 µM
CC(C)(O)C#Cc1ccc(/C=C/C(=O)c2ccccc2)s1	56.3 µM
O=S(=O)(N/N=C1\CC2CCC1C2)c1ccccc1 (centres undefined)	> 100 µM
COc1cc(-n2cc(-c3ccc(F)cc3)nc2SCc2ccccc2)cc(OC)c1OC	> 100 µM
C=C(C)C1Cc2c(cc(OC)c3c(=O)c4cccc(O)c4oc23)O1 (centres undefined)	> 100 µM
Nc1nc(N)c(Cn2ccnc2)c(=O)[nH]1	> 100 µM
O=C1C2C(C(=O)[N]1[Hg][c]1cccs1)C1(Cl)C(Cl)=C(Cl)C2(Cl)C1(Cl)Cl (centres undefined)	3.41 µM
n1onc2c1NC1Nc3nonc3NC1N2 (centres undefined)	> 100 µM
COc1cc2c(c(O)c1OC)C(O)C1CCC(=O)N1C2c1cccc2ccccc12 (centres undefined)	> 100 µM
Cn1c(N)c(C(N)=O)[nH]c1=S	> 100 µM
COC(=O)C1CCC(Nc2ccc(C)cc2C)=N1 (centres undefined)	> 100 µM
